valueKind: melting point (°C)

FC(F)(F)c1cc(Nc2ncc(-c3ccccc3)o2)cc(C(F)(F)F)c1 [Compound 5-6] | 203
Cc1cc(C)cc(Nc2ncc(-c3ccccc3)s2)c1 [Compound 2-3] | 144
c1ccc(-c2cnc(Nc3ccc4c(c3)CCC4)o2)cc1 [Compound 5-5] | 152
